Test system: BXPC-3
Experiment: Human cancer cell line growth inhibition, Pancreas-a BXPC-3
Assay type: cell-based
Assign fulfilled whenever Pancreas-a BXPC-3 GI50 does not fall below 0.4 µg/mL; assign not fulfilled whenever it does.

Recorded results for 5 molecules are shown here.
[
  {
    "MOLECULE": "COc1cc(/C=C\\c2ccc(OC)c(OP(=O)([O-])[O-])c2OP(=O)([O-])[O-])cc(OC)c1OC.[Cs+].[Cs+].[Cs+].[Cs+] [Compound 11c]",
    "CLASS_ASSIGNMENT": "not fulfilled"
  },
  {
    "MOLECULE": "COc1cc(/C=C\\c2ccc(OC)c(OP(=O)([O-])[O-])c2OP(=O)([O-])[O-])cc(OC)c1OC.[Li+].[Li+].[Li+].[Li+] [Compound 11a]",
    "CLASS_ASSIGNMENT": "not fulfilled"
  },
  {
    "MOLECULE": "COc1ccc(/C=C\\c2cc(OC)c(OC)c(OC)c2)c(O)c1O",
    "CLASS_ASSIGNMENT": "fulfilled"
  },
  {
    "MOLECULE": "COc1cc(/C=C\\c2ccc(OC)c(OP(=O)([O-])[O-])c2OP(=O)([O-])[O-])cc(OC)c1OC.[K+].[K+].[K+].[K+] [Compound 11b]",
    "CLASS_ASSIGNMENT": "not fulfilled"
  },
  {
    "MOLECULE": "COc1cc(/C=C\\c2ccc(OC)c(OP(=O)([O-])[O-])c2OP(=O)([O-])[O-])cc(OC)c1OC.[Zn+2].[Zn+2] [Compound 11g]",
    "CLASS_ASSIGNMENT": "not fulfilled"
  }
]

Then there is this molecule:
Textbook exercise: given the entry COc1cc(/C=C\c2ccc(OC)c(OP(=O)([O-])[O-])c2OP(=O)([O-])[O-])cc(OC)c1OC.[Mn+2].[Mn+2] [Compound 11f] , state whether its Pancreas-a BXPC-3 GI50 is greater than or equal to 0.4 µg/mL.
fulfilled
